Data origin: patent US12565505B2

Biological target: mTORC1 (Homo sapiens, UniProt P42345+P62942)
Construct: endogenous in cells; host or cells: PC3 cells (human prostate adenocarcinoma)
Assay: Inhibition assay for mTORC1: phosphorylation of pS6K at Thr389, AlphaLISA SureFire in PC3 cells
Assay type: cell-based
Conditions: PC3 cells, 24 hours treatment, pS6K Thr389; analogs substituted at C40 and C16 (C16 diastereomer mixtures not isolated); read-out: pIC50 mTORC1 (converted)
Description: The IC50s of the inhibition of mTORC1 and mTORC2 were determined in vitro by determining the phosphorylation of pS6K at position Thr389 (mTORC1 inhibition) and pAkt at Ser473 (mTORC2 inhibition). In vitro studies were performed with AiphaLISA® technology using PC3 cells (Prostate Adenocarcinoma; Human (Homo sapiens)). The cells were seeded in 96 well plates and were treated for 24 hours with the different compounds. […]
Recorded IC50 by entry

COCCOC1C[C@@H]2CC[C@@H](C)[C@@](O)(O2)C(=O)C(=O)N2CCCCC2C(=O)O[C@H]([C@H](C)C[C@@H]2CC[C@@H](OC(=O)N(C)CCN3CCOCC3)[C@H](OC)C2)CC(=O)[C@H](C)/C=C(\C)[C@@H](O)[C@@H](OC)C(=O)[C@H](C)C[C@H](C)/C=C/C=C/C=C/1C (some centres unmarked) :: < 316 pM

So what does the record say about IC50 for COCCOC1C[C@@H]2CC[C@@H](C)[C@@](O)(O2)C(=O)C(=O)N2CCCCC2C(=O)O[C@H]([C@H](C)C[C@@H]2CC[C@@H](OCCCN3CCO[C@H](C)C3)[C@H](OC)C2)CC(=O)[C@H](C)/C=C(\C)[C@@H](O)[C@@H](OC)C(=O)[C@H](C)C[C@H](C)/C=C/C=C/C=C/1C (some centres unmarked) ?
< 316 pM

====

Recorded IC50 by entry
Biological target: mTORC2 (Homo sapiens, UniProt P42345+P62942)
Construct: endogenous in cells; host or cells: PC3 cells (human prostate adenocarcinoma)
Assay: Inhibition assay for mTORC2: phosphorylation of pAkt at Ser473, AlphaLISA SureFire in PC3 cells
Type: cell-based
Details: PC3 cells, 24 hours treatment, analogs substituted at C40 and C16 (C16 diastereomer mixtures not isolated), read-out: pIC50 mTORC2 (converted)

CO[C@@H]1C[C@H](C[C@@H](C)[C@@H]2CC(=O)[C@H](C)/C=C(\C)[C@@H](O)[C@@H](OC)C(=O)[C@H](C)C[C@H](C)/C=C/C=C/C=C(\C)C(OCCc3ccccc3)C[C@@H]3CC[C@@H](C)[C@@](O)(O3)C(=O)C(=O)N3CCCCC3C(=O)O2)CC[C@H]1OCCCN1CCCCC1 (stereo partly shown) :: < 1 µM
CO[C@@H]1CC[C@@H](C[C@@H](C)[C@@H]2CC(=O)[C@H](C)/C=C(\C)[C@@H](O)[C@@H](OC)C(=O)[C@H](C)C[C@H](C)/C=C/C=C/C=C(\C)C(OCCCO)C[C@@H]3CC[C@@H](C)[C@@](O)(O3)C(=O)C(=O)N3CCCCC3C(=O)O2)C[C@H]1OC (stereo partly shown) :: > 10 µM
COCCOC1C[C@@H]2CC[C@@H](C)[C@@](O)(O2)C(=O)C(=O)N2CCCCC2C(=O)O[C@H]([C@H](C)C[C@@H]2CC[C@@H](OCCN3CCN(C)CC3)[C@H](OC)C2)CC(=O)[C@H](C)/C=C(\C)[C@@H](O)[C@@H](OC)C(=O)[C@H](C)C[C@H](C)/C=C/C=C/C=C/1C (stereo partly shown) :: 1 to 10 µM

So what does the record say about IC50 for CO[C@@H]1C[C@H](C[C@@H](C)[C@@H]2CC(=O)[C@H](C)/C=C(\C)[C@@H](O)[C@@H](OC)C(=O)[C@H](C)C[C@H](C)/C=C/C=C/C=C(\C)C(OCCCO)C[C@@H]3CC[C@@H](C)[C@@](O)(O3)C(=O)C(=O)N3CCCCC3C(=O)O2)CC[C@H]1OCCO (stereo partly shown) ?
> 10 µM

CO[C@@H]1C[C@H](C[C@@H](C)[C@@H]2CC(=O)[C@H](C)/C=C(\C)[C@@H](O)[C@@H](OC)C(=O)[C@H](C)C[C@H](C)/C=C/C=C/C=C(\C)C(OCC(C)(C)O)C[C@@H]3CC[C@@H](C)[C@@](O)(O3)C(=O)C(=O)N3CCCCC3C(=O)O2)CC[C@H]1OCCO (stereo partly shown) ?
1 to 10 µM

CO[C@@H]1C[C@H](C[C@@H](C)[C@@H]2CC(=O)[C@H](C)/C=C(\C)[C@@H](O)[C@@H](OC)C(=O)[C@H](C)C[C@H](C)/C=C/C=C/C=C(\C)C(OCCCCO)C[C@@H]3CC[C@@H](C)[C@@](O)(O3)C(=O)C(=O)N3CCCC[C@H]3C(=O)O2)CC[C@H]1OCCCO (mixture of isomers) ?
1 to 10 µM

====

Target: mTORC1 (Homo sapiens, UniProt P42345+P62942)
Construct: endogenous in cells; host or cells: PC3 cells (human prostate adenocarcinoma)
Assay: Inhibition assay for mTORC1: phosphorylation of pS6K at Thr389, AlphaLISA SureFire in PC3 cells
Type: cell-based
Settings: PC3 cells, 24 hours treatment, pS6K Thr389; analogs substituted at C40 and C16 (C16 diastereomer mixtures not isolated); read-out: pIC50 mTORC1 (converted)
measured metric: IC50

CO[C@@H]1C[C@H](C[C@@H](C)[C@@H]2CC(=O)[C@H](C)/C=C(\C)[C@@H](O)[C@@H](OC)C(=O)[C@H](C)C[C@H](C)/C=C/C=C/C=C(\C)C(OCCO)C[C@@H]3CC[C@@H](C)[C@@](O)(O3)C(=O)C(=O)N3CCCCC3C(=O)O2)CC[C@H]1OCCCCN1CCOCC1 (stereo partly drawn) [Compound 50] :: < 0.316 nM
CO[C@@H]1C[C@H](C[C@@H](C)[C@@H]2CC(=O)[C@H](C)/C=C(\C)[C@@H](O)[C@@H](OC)C(=O)[C@H](C)C[C@H](C)/C=C/C=C/C=C(\C)C(OCCO)C[C@@H]3CC[C@@H](C)[C@@](O)(O3)C(=O)C(=O)N3CCCCC3C(=O)O2)CC[C@H]1OC(=O)N(C)CCO (stereo partly drawn) [Compound 83] :: 0.316 to 3.16 nM

So what does the record say about IC50 for CO[C@@H]1C[C@H](C[C@@H](C)[C@@H]2CC(=O)[C@H](C)/C=C(\C)[C@@H](O)[C@@H](OC)C(=O)[C@H](C)C[C@H](C)/C=C/C=C/C=C(\C)C(OCCc3ccccc3)C[C@@H]3CC[C@@H](C)[C@@](O)(O3)C(=O)C(=O)N3CCCCC3C(=O)O2)CC[C@H]1OCCCO (stereo partly drawn) [Compound 94] ?
< 0.316 nM

====

Recorded IC50 by entry
Molecular target: mTORC1 (Homo sapiens, UniProt P42345+P62942)
Construct: endogenous in cells; host or cells: PC3 cells (human prostate adenocarcinoma)
Assay: Inhibition assay for mTORC1: phosphorylation of pS6K at Thr389, AlphaLISA SureFire in PC3 cells
Type: cell-based
Conditions: PC3 cells, 24 hours treatment, pS6K Thr389; analogs substituted at C40 and C16 (C16 diastereomer mixtures not isolated); read-out: pIC50 mTORC1 (converted)

COCCOC1C[C@@H]2CC[C@@H](C)[C@@](O)(O2)C(=O)C(=O)N2CCCCC2C(=O)O[C@H]([C@H](C)C[C@@H]2CC[C@@H](OC(=O)NCCN3CCOCC3)[C@H](OC)C2)CC(=O)[C@H](C)/C=C(\C)[C@@H](O)[C@@H](OC)C(=O)[C@H](C)C[C@H](C)/C=C/C=C/C=C/1C (stereo partly shown) :: < 0.316 nM

So what does the record say about IC50 for CO[C@@H]1C[C@H](C[C@@H](C)[C@@H]2CC(=O)[C@H](C)/C=C(\C)[C@@H](O)[C@@H](OC)C(=O)[C@H](C)C[C@H](C)/C=C/C=C/C=C(\C)C(OCCc3ccccc3)C[C@@H]3CC[C@@H](C)[C@@](O)(O3)C(=O)C(=O)N3CCCCC3C(=O)O2)CC[C@H]1OCCO (stereo partly shown) ?
< 0.316 nM

COCCCO[C@@H]1CC[C@@H](C[C@@H](C)[C@@H]2CC(=O)[C@H](C)/C=C(\C)[C@@H](O)[C@@H](OC)C(=O)[C@H](C)C[C@H](C)/C=C/C=C/C=C(\C)C(OCCOCCOC)C[C@@H]3CC[C@@H](C)[C@@](O)(O3)C(=O)C(=O)N3CCCCC3C(=O)O2)C[C@H]1OC (stereo partly shown) ?
< 0.316 nM

CO[C@@H]1CC[C@@H](C[C@@H](C)[C@@H]2CC(=O)[C@H](C)/C=C(\C)[C@@H](O)[C@@H](OC)C(=O)[C@H](C)C[C@H](C)/C=C/C=C/C=C(\C)C(OCCCCO)C[C@@H]3CC[C@@H](C)[C@@](O)(O3)C(=O)C(=O)N3CCCCC3C(=O)O2)C[C@H]1OC (stereo partly shown) ?
< 0.316 nM

CO[C@@H]1C[C@H](C[C@@H](C)[C@@H]2CC(=O)[C@H](C)/C=C(\C)[C@@H](O)[C@@H](OC)C(=O)[C@H](C)C[C@H](C)/C=C/C=C/C=C(\C)C(OCCC3CCOCC3)C[C@@H]3CC[C@@H](C)[C@@](O)(O3)C(=O)C(=O)N3CCCCC3C(=O)O2)CC[C@H]1OCCCO (stereo partly shown) ?
0.316 to 3.16 nM

COCCOC1C[C@@H]2CC[C@@H](C)[C@@](O)(O2)C(=O)C(=O)N2CCCCC2C(=O)O[C@H]([C@H](C)C[C@@H]2CC[C@@H](OCCN3C[C@@H](C)O[C@@H](C)C3)[C@H](OC)C2)CC(=O)[C@H](C)/C=C(\C)[C@@H](O)[C@@H](OC)C(=O)[C@H](C)C[C@H](C)/C=C/C=C/C=C/1C (stereo partly shown) ?
0.316 to 3.16 nM

CO[C@@H]1C[C@H](C[C@@H](C)[C@@H]2CC(=O)[C@H](C)/C=C(\C)[C@@H](O)[C@@H](OC)C(=O)[C@H](C)C[C@H](C)/C=C/C=C/C=C(\C)C(OCCO)C[C@@H]3CC[C@@H](C)[C@@](O)(O3)C(=O)C(=O)N3CCCCC3C(=O)O2)CC[C@H]1OCCCc1ccccc1 (stereo partly shown) ?
0.316 to 3.16 nM
